Numbers sourced from patent US12552758B2.

I'd appreciate it if you could supply IC50 values for the items below.
Molecular target: recombinant N-terminal MLH1 (residues 15-340) (Homo sapiens (Human), UniProt P40692)
Sequence (P40692 15-340): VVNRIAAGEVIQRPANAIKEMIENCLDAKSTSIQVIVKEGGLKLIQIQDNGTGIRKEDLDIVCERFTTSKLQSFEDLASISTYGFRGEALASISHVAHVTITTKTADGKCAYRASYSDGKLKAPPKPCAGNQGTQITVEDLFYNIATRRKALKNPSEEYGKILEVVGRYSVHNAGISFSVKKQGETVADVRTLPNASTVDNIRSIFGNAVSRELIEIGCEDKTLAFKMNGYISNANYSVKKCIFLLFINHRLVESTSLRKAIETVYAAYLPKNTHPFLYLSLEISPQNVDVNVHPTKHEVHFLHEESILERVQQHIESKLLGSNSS
Test: Fluorescence polarisation assay for MLH1 (protocol for all Examples except Examples 64, 76, 90 and 95)
Format: binding
Details: FP probe displacement; 100 nM N-terminal MLH1, 5 nM probe compound, read after 15 minutes; all Examples except 64, 76, 90 and 95

Inquiry: Please report IC50 for the following molecule: O=C(c1c(O)cc(O)cc1OCc1ccccc1)N1Cc2ccc(Br)cc2C1 [Example 23]
Reply text: < 1 µM

Inquiry: Please report IC50 for the following molecule: O=C(c1c(O)cc(O)cc1OCc1ccccc1)N1CC[C@H](O)C1 [Example 6]
Reply text: > 10 µM

Inquiry: Please report IC50 for the following molecule: Cc1c(O)cc(O)c(C(=O)N2CCc3ccc(C(=O)N(C)C)cc3C2)c1OCc1ccccc1 [Example 77]
Reply text: > 10 µM

Inquiry: Please report IC50 for the following molecule: Cc1c(O)cc(O)c(C(=O)N2CCCC2)c1OCc1ccccc1 [Example 10]
Reply text: > 10 µM

Inquiry: Please report IC50 for the following molecule: Cc1c(O)cc(O)c(C(=O)N2CCc3ccccc3C2)c1OCc1ccccc1 [Example 36]
Reply text: > 10 µM

Inquiry: Please report IC50 for the following molecule: Cc1c(O)cc(O)c(C(=O)N2CCc3ccc(CN(C)C)cc3C2)c1OCc1ccccc1 [Example 60]
Reply text: > 10 µM

Inquiry: Please report IC50 for the following molecule: O=C(c1c(O)cc(O)cc1OCc1ccncn1)N1CCCC1 [Example 20]
Reply text: > 10 µM

Inquiry: Please report IC50 for the following molecule: Cc1c(O)cc(O)c(C(=O)N2Cc3ccncc3C2)c1OCc1ccccc1 [Example 74]
Reply text: > 10 µM

Inquiry: Please report IC50 for the following molecule: Cc1c(O)cc(O)c(C(=O)N2Cc3ccc(CN4CCN(C)CC4)cc3C2)c1OCc1ccccc1 [Example 40]
Reply text: > 10 µM

Inquiry: Please report IC50 for the following molecule: COc1ccc2c(c1)CN(C(=O)c1c(O)cc(O)c(C)c1OCc1ccccc1)CC2 [Example 52]
Reply text: > 10 µM

Inquiry: Please report IC50 for the following molecule: O=C(c1c(O)cc(O)cc1OC1CCCC1)N1CCCC1 [Example 2]
Reply text: > 10 µM

Inquiry: Please report IC50 for the following molecule: Cc1c(O)cc(O)c(C(=O)N2CCc3cc(C(=O)N(C)C)ccc3C2)c1OCc1ccccc1 [Example 78]
Reply text: > 10 µM

Inquiry: Please report IC50 for the following molecule: Cc1c(O)cc(O)c(C(=O)N2CCc3ccncc3C2)c1OCc1ccccc1 [Example 42]
Reply text: > 10 µM

Inquiry: Please report IC50 for the following molecule: Cc1cccc(COc2cc(O)cc(O)c2C(=O)N2Cc3cccnc3C2)c1 [Example 32]
Reply text: 1 to 10 µM

Inquiry: Please report IC50 for the following molecule: Cc1c(O)cc(O)c(C(=O)N2CCc3cnccc3C2)c1OCc1ccccc1 [Example 43]
Reply text: > 10 µM

Inquiry: Please report IC50 for the following molecule: O=C(c1c(O)cc(O)cc1OCc1ccccc1)N1CCc2ccccc2C1 [Example 58]
Reply text: 1 to 10 µM

Inquiry: Please report IC50 for the following molecule: Cc1c(O)cc(O)c(C(=O)N2Cc3cccc(N)c3C2)c1OCc1ccccc1 [Example 50]
Reply text: > 10 µM

Inquiry: Please report IC50 for the following molecule: O=C(c1c(O)cc(O)cc1OCc1ccccc1)N1CCCCC1 [Example 5]
Reply text: > 10 µM

Inquiry: Please report IC50 for the following molecule: O=C(c1c(O)cc(O)cc1OCc1ccccn1)N1Cc2cccnc2C1 [Example 35]
Reply text: 1 to 10 µM

Inquiry: Please report IC50 for the following molecule: Cc1c(O)cc(O)c(C(=O)N2Cc3ccccc3C2)c1OCc1ccccn1 [Example 34]
Reply text: > 10 µM

Inquiry: Please report IC50 for the following molecule: O=C(c1c(O)cc(O)cc1OCc1ccccc1)N1CCC[C@H](O)C1 [Example 9]
Reply text: > 10 µM

Inquiry: Please report IC50 for the following molecule: Cc1c(O)cc(O)c(C(=O)N2Cc3ccccc3C[C@H]2CO)c1OCc1ccccc1 [Example 62]
Reply text: > 10 µM

Inquiry: Please report IC50 for the following molecule: Cc1c(O)cc(O)c(C(=O)N2Cc3ccccc3C(CO)C2)c1OCc1ccccc1 (stereo not drawn) [Example 66]
Reply text: > 10 µM

Inquiry: Please report IC50 for the following molecule: Cc1c(O)cc(O)c(C(=O)N2CCc3ncncc3C2)c1OCc1ccccc1 [Example 55]
Reply text: > 10 µM

Inquiry: Please report IC50 for the following molecule: Cc1cccc(COc2cc(O)cc(O)c2C(=O)N2CCCC2)c1 [Example 17]
Reply text: > 10 µM

Inquiry: Please report IC50 for the following molecule: Cc1c(O)cc(O)c(C(=O)N2Cc3ccc(CN4CCOCC4)cc3C2)c1OCc1ccccc1 [Example 69]
Reply text: > 10 µM

Inquiry: Please report IC50 for the following molecule: O=C(c1c(O)cc(O)cc1OCc1ccccn1)N1CCCC1 [Example 12]
Reply text: > 10 µM

Inquiry: Please report IC50 for the following molecule: COc1ccc2c(c1)CN(C(=O)c1c(O)cc(O)cc1OCc1ccccc1)C2 [Example 25]
Reply text: < 1 µM

Inquiry: Please report IC50 for the following molecule: CC(Oc1cc(O)cc(O)c1C(=O)N1CCCC1)c1ccccc1 (single isomer, unassigned) [Example 13]
Reply text: > 10 µM

Inquiry: Please report IC50 for the following molecule: COc1cc2c(cc1OC)CN(C(=O)c1c(O)cc(O)cc1OCc1ccccc1)C2 [Example 26]
Reply text: 1 to 10 µM
